# credit: ChEMBL document CHEMBL5528054

Some compounds, each annotated with its measured IC50.
- Target: Melanocortin receptor 3 (Homo sapiens, UniProt P41968)
- Sequence (P41968 whole entry): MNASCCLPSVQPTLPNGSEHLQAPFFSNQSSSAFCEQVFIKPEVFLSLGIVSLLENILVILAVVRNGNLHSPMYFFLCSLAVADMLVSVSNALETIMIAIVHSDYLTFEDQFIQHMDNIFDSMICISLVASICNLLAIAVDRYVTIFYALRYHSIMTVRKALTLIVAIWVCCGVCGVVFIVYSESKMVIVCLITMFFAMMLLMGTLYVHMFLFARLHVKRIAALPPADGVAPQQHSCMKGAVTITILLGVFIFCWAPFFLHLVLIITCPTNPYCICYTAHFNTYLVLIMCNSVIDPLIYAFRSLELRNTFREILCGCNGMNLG
- Experiment Description: Antagonist activity at C-terminal HA-tagged human MC3-R stably expressed in HEK293 cells co-expressing GScAMP22P cAMP reporter assessed as inhibition of alpha-MSH induced cAMP production by cell based luminescence assay
- Assay type: functional
- Test Parameters: read-out: IC50
A number alone suffices; assume nM.

CCCC[C@H](NC(C)=O)C(=O)N[C@H]1CC(=O)NCCCC[C@@H](C(N)=O)NC(=O)CNC(=O)[C@H](Cc2c[nH]c3ccccc23)NC(=O)[C@H](CCCNC(=N)N)NC(=O)[C@@H](Cc2ccc3ccccc3c2)NC(=O)[C@@H]2C[C@H](n3cc(-c4ccccc4)nn3)CN2C1=O :: 26.4

For Melanocortin receptor 3 (Homo sapiens, UniProt P41968), give the measured IC50 of the entry CCCC[C@H](NC(C)=O)C(=O)N[C@H]1CC(=O)NCCCC[C@@H](C(N)=O)NC(=O)CNC(=O)[C@H](Cc2c[nH]c3ccccc23)NC(=O)[C@H](CCCNC(=N)N)NC(=O)[C@@H](Cc2ccc3ccccc3c2)NC(=O)[C@@H]2C[C@H](n3cc(C4CCCCC4)nn3)CN2C1=O
56.8

----------
- Target: Melanocyte-stimulating hormone receptor (Homo sapiens, UniProt Q01726)
- Sequence (Q01726 whole entry, looked up): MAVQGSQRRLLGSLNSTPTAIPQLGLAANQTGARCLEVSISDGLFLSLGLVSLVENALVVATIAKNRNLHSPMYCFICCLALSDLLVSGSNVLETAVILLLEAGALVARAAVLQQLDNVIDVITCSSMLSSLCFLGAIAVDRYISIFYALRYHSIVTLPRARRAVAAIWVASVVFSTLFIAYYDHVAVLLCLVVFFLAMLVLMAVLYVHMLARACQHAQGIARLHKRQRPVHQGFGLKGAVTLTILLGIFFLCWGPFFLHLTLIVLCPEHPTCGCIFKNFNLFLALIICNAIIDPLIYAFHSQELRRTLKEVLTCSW
- Experiment Description: Partial agonist activity at C-terminal HA-tagged human MC1-R stably expressed in HEK293 cells co-expressing GScAMP22P cAMP reporter assessed as inhibition of alpha-MSH induced cAMP production by cell based luminescence assay relative to control
- Assay type: functional
- Design: concentration or dose not given beside the values
- Test Parameters: filed as partial agonist, concentration not given here
inhibition reference
Please state the figure in %; there is no need to write the unit.

CCCCC(NC(C)=O)C(=O)N[C@H]1CC(=O)NCCCC[C@@H](C(N)=O)NC(=O)CNC(=O)[C@H](Cc2c[nH]c3ccccc23)NC(=O)[C@H](CCCNC(=N)N)NC(=O)[C@@H](Cc2ccc3ccccc3c2)NC(=O)[C@@H]2C[C@@H](n3cc(C(C)(C)N)nn3)CN2C1=O (stereo partly drawn) :: 86.7

Give recorded inhibition. CCCCC(NC(C)=O)C(=O)N[C@H]1CC(=O)NCCCC[C@@H](C(N)=O)NC(=O)CNC(=O)[C@H](Cc2c[nH]c3ccccc23)NC(=O)[C@H](CCCNC(=N)N)NC(=O)[C@@H](Cc2ccc3ccccc3c2)NC(=O)[C@@H]2C[C@@H](n3cc(CCCNC(=N)N)nn3)CN2C1=O (stereo partly drawn)
84.7

Return the recorded inhibition value; entry: CCCC[C@H](NC(C)=O)C(=O)N[C@H]1CC(=O)NCCCC[C@@H](C(N)=O)NC(=O)[C@H](CCCCNC(=N)NCCN)NC(=O)[C@H](Cc2c[nH]c3ccccc23)NC(=O)[C@H](CCCNC(=N)N)NC(=O)[C@@H](Cc2ccc3ccccc3c2)NC(=O)[C@@H]2CCCN2C1=O
85.3

Tell me inhibition reported for CCCC[C@H](NC(C)=O)C(=O)N[C@H]1CC(=O)NCCCC[C@@H](C(N)=O)NC(=O)[C@H](CCCCN)NC(=O)[C@H](Cc2c[nH]c3ccccc23)NC(=O)[C@H](CCCNC(=N)N)NC(=O)[C@@H](Cc2ccc3ccccc3c2)NC(=O)[C@@H]2CCCN2C1=O
81.6

Consider the compound CCCC[C@H](NC(C)=O)C(=O)N[C@H]1CC(=O)NCCCC[C@@H](C(N)=O)NC(=O)CNC(=O)[C@H](Cc2c[nH]c3ccccc23)NC(=O)[C@H](CCCNC(=N)N)NC(=O)[C@@H](Cc2ccc3ccccc3c2)NC(=O)[C@@H]2C[C@H](n3cc(-c4ccccc4)nn3)CN2C1=O and give its recorded inhibition.
84.7

Using known records, supply inhibition for CCCC[C@H](NC(C)=O)C(=O)N[C@H]1CC(=O)NCCCC[C@@H](C(N)=O)NC(=O)[C@H](Cc2c[nH]c3ccccc23)NC(=O)[C@H](CCCNC(=N)N)NC(=O)[C@@H](Cc2ccc3ccccc3c2)NC(=O)[C@H](Cc2c[nH]cn2)NC1=O
76

Answer with reported inhibition of CCCC[C@H](NC(C)=O)C(=O)N[C@H]1CC(=O)NCCCC[C@@H](C(N)=O)NC(=O)CNC(=O)[C@H](Cc2c[nH]c3ccccc23)NC(=O)[C@H](CCCNC(=N)N)NC(=O)[C@@H](Cc2ccc3ccccc3c2)NC(=O)[C@@H]2C[C@H](NC(=O)c3ccccc3)CN2C1=O
90.9

Name the recorded inhibition of the item CC(=O)N[C@H](CCCNC(=N)N)C(=O)N[C@H]1CC(=O)NCCCC[C@@H](C(N)=O)NC(=O)[C@H](CCCNC(=N)N)NC(=O)[C@H](Cc2c[nH]c3ccccc23)NC(=O)[C@H](CCCNC(=N)N)NC(=O)[C@@H](Cc2ccc3ccccc3c2)NC(=O)[C@@H]2CCCN2C1=O in your answer.
94.6

----------
- Target: Melanocyte-stimulating hormone receptor (Homo sapiens)
- Experiment Description: Partial agonist activity at C-terminal HA-tagged human MC1-R stably expressed in HEK293 cells co-expressing GScAMP22P cAMP reporter assessed as inhibition of alpha-MSH induced cAMP production by cell based luminescence assay relative to control
- Type: functional
- Design: concentration or dose not given beside the values
- Test Parameters: filed as partial agonist, concentration not given here
Recorded Metric: inhibition (%)
Your answer should be a plain number; it is taken to be in %.

In the examples that follow, each entry is paired with its recorded inhibition.
CCCCCCc1cn([C@H]2C[C@H]3C(=O)N[C@H](Cc4ccc5ccccc5c4)C(=O)N[C@@H](CCCNC(=N)N)C(=O)N[C@@H](Cc4c[nH]c5ccccc45)C(=O)NCC(=O)N[C@H](C(N)=O)CCCCNC(=O)C[C@H](NC(=O)[C@H](CCCC)NC(C)=O)C(=O)N3C2)nn1 :: 83.5
CCCC[C@H](NC(C)=O)C(=O)N[C@H]1CC(=O)NCCCC[C@@H](C(N)=O)NC(=O)[C@H](CCCCNC(=N)NCc2ccccc2)NC(=O)[C@H](Cc2c[nH]c3ccccc23)NC(=O)[C@H](CCCNC(=N)N)NC(=O)[C@@H](Cc2ccc3ccccc3c2)NC(=O)[C@@H]2CCCN2C1=O :: 89.6
CCCC[C@H](NC(C)=O)C(=O)N[C@H]1CC(=O)NCCCC[C@@H](C(N)=O)NC(=O)[C@H](CCCNC(N)=O)NC(=O)[C@H](Cc2c[nH]c3ccccc23)NC(=O)[C@H](CCCNC(=N)N)NC(=O)[C@@H](Cc2ccc3ccccc3c2)NC(=O)[C@@H]2CCCN2C1=O :: 91.2

Please tell me the measured inhibition for CCCC[C@H](NC(C)=O)C(=O)N[C@H]1CC(=O)NCCCC[C@@H](C(N)=O)NC(=O)[C@H](CCCCNC(=N)NCCC)NC(=O)[C@H](Cc2c[nH]c3ccccc23)NC(=O)[C@H](CCCNC(=N)N)NC(=O)[C@@H](Cc2ccc3ccccc3c2)NC(=O)[C@@H]2CCCN2C1=O ; system: Melanocyte-stimulating hormone receptor (Homo sapiens).
86.2

----------
# reported inhibition; entries follow
- Target: Melanocyte-stimulating hormone receptor (Homo sapiens, UniProt Q01726)
- Experiment Description: Partial agonist activity at C-terminal HA-tagged human MC1-R stably expressed in HEK293 cells co-expressing GScAMP22P cAMP reporter assessed as inhibition of alpha-MSH induced cAMP production by cell based luminescence assay relative to control
- Assay type: functional
- Design: concentration or dose not given beside the values
- Test Parameters: filed as partial agonist, concentration not given here
Write it as a number; the unit % goes unstated.

# annotated cases, reported inhibition shown
CCCC[C@H](NC(C)=O)C(=O)N[C@H]1CC(=O)NCCCC[C@@H](C(N)=O)NC(=O)CNC(=O)[C@H](Cc2c[nH]c3ccccc23)NC(=O)[C@H](CCCNC(=N)N)NC(=O)[C@@H](Cc2ccc3ccccc3c2)NC(=O)[C@@H]2C[C@H](n3cc(CCNC(=N)N)nn3)CN2C1=O :: 85.9
CCCC[C@H](NC(C)=O)C(=O)N[C@H]1CC(=O)NCCCC[C@@H](C(N)=O)NC(=O)CNC(=O)[C@H](Cc2c[nH]c3ccccc23)NC(=O)[C@H](CCCNC(=N)N)NC(=O)[C@@H](Cc2ccc3ccccc3c2)NC(=O)[C@@H]2C[C@H](n3cc(CCC(=O)O)nn3)CN2C1=O :: 86.4
CCCC[C@H](NC(C)=O)C(=O)N[C@H]1CC(=O)NCCCC[C@@H](C(N)=O)NC(=O)[C@H](CCCNC(=N)N)NC(=O)[C@H](Cc2c[nH]c3ccccc23)NC(=O)[C@H](CCCNC(=N)N)NC(=O)[C@@H](Cc2ccc3ccccc3c2)NC(=O)[C@@H]2CCCN2C1=O :: 86.8
CCCC[C@H](NC(C)=O)C(=O)N[C@H]1CC(=O)NCCCC[C@@H](C(N)=O)NC(=O)CNC(=O)[C@H](Cc2c[nH]c3ccccc23)NC(=O)[C@H](CCCNC(=N)N)NC(=O)[C@@H](Cc2ccc3ccccc3c2)NC(=O)[C@@H]2C[C@@H](NC(=O)CCNC(=N)N)CN2C1=O :: 76.4
CCCC[C@H](NC(C)=O)C(=O)N[C@H]1CC(=O)NCCCC[C@@H](C(N)=O)NC(=O)CNC(=O)[C@H](Cc2c[nH]c3ccccc23)NC(=O)[C@H](CCCNC(=N)N)NC(=O)[C@@H](Cc2ccc3ccccc3c2)NC(=O)[C@@H]2C[C@H](n3cc(-c4ccccn4)nn3)CN2C1=O :: 87.2

Supply inhibition value. Item: CCCC[C@H](NC(C)=O)C(=O)N[C@H]1CC(=O)NCCCC[C@@H](C(N)=O)NC(=O)CNC(=O)[C@H](Cc2c[nH]c3ccccc23)NC(=O)[C@H](CCCNC(=N)N)NC(=O)[C@@H](Cc2ccc3ccccc3c2)NC(=O)[C@@H]2C[C@H](NC(=O)CCNC(=N)N)CN2C1=O
78.6

State its inhibition: CCCC[C@H](NC(C)=O)C(=O)N[C@H]1CC(=O)NCCCC[C@@H](C(N)=O)NC(=O)CNC(=O)[C@H](Cc2c[nH]c3ccccc23)NC(=O)[C@H](CCCNC(=N)N)NC(=O)[C@@H](Cc2ccc3ccccc3c2)NC(=O)[C@@H]2C[C@H](NC(=O)[C@@H](N)CCC(=O)O)CN2C1=O
80.7

Quote inhibition reported for CCCC[C@H](NC(C)=O)C(=O)N[C@H]1CC(=O)NCCCC[C@@H](C(N)=O)NC(=O)CNC(=O)[C@H](Cc2c[nH]c3ccccc23)NC(=O)[C@H](CCCNC(=N)N)NC(=O)[C@@H](Cc2ccc3ccccc3c2)NC(=O)[C@@H]2C[C@H](NC(=O)CC3CCCCC3)CN2C1=O please.
93.7
